# Test method notes: gradient 5% acetonitrile 3 min, to 50% in 2 min, to 85% in 15 min, held 3 min, 100 µL/min
# Test context: column: Zorbax Extend-C18 2.1 x 50 mm; eluents: water / acetonitrile, 0.1% formic acid
Endpoint label: RP-LC retention time (s)

{"Molecule": "O=C(NCc1ccccc1)Nc1ccc2nc(-c3ccccc3)cc(N3CCOCC3)c2c1", "Unit of measure": "s", "RP-LC retention time": 709}
{"Molecule": "O=C(Cn1cnc2nc(N3CCCC(C(=O)NC4CC4)C3)sc2c1=O)Nc1ccc(F)c(F)c1 (stereo unspecified)", "Unit of measure": "s", "RP-LC retention time": 705}
{"Molecule": "Cc1cccc(-c2csc3c(=O)n(Cc4ccccn4)cnc23)c1", "Unit of measure": "s", "RP-LC retention time": 877}
{"Molecule": "CCc1ccccc1NC(=O)N1CCc2nc(-c3ccccc3)ncc2C1", "Unit of measure": "s", "RP-LC retention time": 924}
{"Molecule": "COc1ccc(N2CC(c3noc(-c4ccc(F)cc4)n3)CC2=O)cc1 (stereo unspecified)", "Unit of measure": "s", "RP-LC retention time": 926}
{"Molecule": "Cc1ccc(NC(=O)Nc2c(Cl)cccc2Cl)cn1", "Unit of measure": "s", "RP-LC retention time": 905}
